SYSTEM TESTED: α7 nAChR (Mus musculus, UniProt P49582)
Construct: One forebrain hemisphere from each animal was thawed and homogenized in assay buffer
Sequence (P49582 23-502): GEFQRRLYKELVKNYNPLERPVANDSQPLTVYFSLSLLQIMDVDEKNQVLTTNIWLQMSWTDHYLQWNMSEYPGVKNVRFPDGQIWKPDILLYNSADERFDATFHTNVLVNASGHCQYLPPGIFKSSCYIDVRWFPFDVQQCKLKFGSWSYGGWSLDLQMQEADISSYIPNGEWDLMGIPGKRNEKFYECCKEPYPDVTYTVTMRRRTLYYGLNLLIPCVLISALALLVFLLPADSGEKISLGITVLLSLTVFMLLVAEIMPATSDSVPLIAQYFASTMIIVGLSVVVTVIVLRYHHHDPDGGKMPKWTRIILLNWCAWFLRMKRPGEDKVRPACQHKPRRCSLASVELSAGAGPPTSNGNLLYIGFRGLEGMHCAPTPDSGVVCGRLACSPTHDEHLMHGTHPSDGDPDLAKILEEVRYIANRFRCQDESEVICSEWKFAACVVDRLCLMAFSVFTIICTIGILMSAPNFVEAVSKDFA
MEASUREMENT PROTOCOL: Ex vivo α7 nAChR occupancy ([3H]-A-585539)
OBSERVED PROPERTY: pEC50
Quick note: pEC50 means taking -log10 of the concentration in moles per liter.

## Input Request the reported pEC50 associated with c1cn(-c2cc(NC3=NC[C@@]4(CN5CCC4CC5)O3)ncn2)cn1
## Output 5.72

---

SYSTEM TESTED: UniProt P08913
Sequence (P08913 1-465): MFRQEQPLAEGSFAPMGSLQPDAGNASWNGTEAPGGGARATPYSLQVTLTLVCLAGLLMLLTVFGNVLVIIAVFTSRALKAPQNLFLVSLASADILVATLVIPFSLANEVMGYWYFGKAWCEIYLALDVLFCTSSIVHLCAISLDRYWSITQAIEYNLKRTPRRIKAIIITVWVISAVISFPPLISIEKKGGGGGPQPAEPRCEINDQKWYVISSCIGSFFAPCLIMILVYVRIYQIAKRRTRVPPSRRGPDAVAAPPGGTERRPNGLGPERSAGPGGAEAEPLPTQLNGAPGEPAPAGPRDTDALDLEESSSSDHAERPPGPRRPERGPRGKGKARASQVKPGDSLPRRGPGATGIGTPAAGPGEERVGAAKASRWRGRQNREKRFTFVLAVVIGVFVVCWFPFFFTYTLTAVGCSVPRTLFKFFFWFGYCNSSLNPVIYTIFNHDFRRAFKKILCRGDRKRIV
pIC50: −log10 of the molar value.
OBSERVED PROPERTY: pIC50

## Input Value wanted: pIC50 (UniProt P08913) of entry c1cn(-c2cc(NC3=NC[C@@]4(CN5CCC4CC5)O3)ncn2)cn1 [BMS-933043]
## Output < 4.52

---

MEASUREMENT PROTOCOL: Plasma and brain concentrations after dosing
Format: in vivo, rat
CONDITION PARAMETERS: rat, brain, oral, 30 mg/kg, Rat MK-801 Set Shift (3-30 mg/kg study); 30 mg/kg po; 150 min; read-out: Brain Mean ± SD
OBSERVED PROPERTY: concentration at 150 min (nM)
Please give a number only; it is taken to be in nM.

## Input Request the reported concentration at 150 min associated with c1cn(-c2cc(NC3=NC[C@@]4(CN5CCC4CC5)O3)ncn2)cn1 [BMS-933043]
## Output 2220

---

SYSTEM TESTED: UniProt P06401
Sequence (P06401 1-933): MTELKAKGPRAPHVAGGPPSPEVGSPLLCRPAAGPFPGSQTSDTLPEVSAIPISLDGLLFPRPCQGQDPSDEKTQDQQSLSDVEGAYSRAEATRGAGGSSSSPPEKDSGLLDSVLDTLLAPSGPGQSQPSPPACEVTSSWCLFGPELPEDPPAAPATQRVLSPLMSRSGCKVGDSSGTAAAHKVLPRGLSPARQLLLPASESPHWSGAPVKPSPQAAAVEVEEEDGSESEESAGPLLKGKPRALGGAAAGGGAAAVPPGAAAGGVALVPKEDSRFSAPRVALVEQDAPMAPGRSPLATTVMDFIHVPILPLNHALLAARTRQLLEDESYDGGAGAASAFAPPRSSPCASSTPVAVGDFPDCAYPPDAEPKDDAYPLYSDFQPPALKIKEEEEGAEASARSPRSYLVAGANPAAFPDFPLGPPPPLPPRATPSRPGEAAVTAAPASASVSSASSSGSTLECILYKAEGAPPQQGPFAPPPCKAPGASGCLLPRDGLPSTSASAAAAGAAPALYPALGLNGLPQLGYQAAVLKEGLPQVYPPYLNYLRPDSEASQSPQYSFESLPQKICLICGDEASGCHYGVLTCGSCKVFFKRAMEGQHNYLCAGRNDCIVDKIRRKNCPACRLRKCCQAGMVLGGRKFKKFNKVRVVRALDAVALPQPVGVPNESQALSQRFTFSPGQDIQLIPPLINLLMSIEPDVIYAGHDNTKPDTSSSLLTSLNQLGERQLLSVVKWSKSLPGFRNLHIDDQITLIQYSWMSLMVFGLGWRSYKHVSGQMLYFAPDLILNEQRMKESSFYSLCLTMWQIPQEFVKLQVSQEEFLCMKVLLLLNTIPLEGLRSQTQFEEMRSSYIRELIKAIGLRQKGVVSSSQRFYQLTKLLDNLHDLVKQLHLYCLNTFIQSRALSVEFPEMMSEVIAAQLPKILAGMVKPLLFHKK
pIC50: −log10 of the molar value.
OBSERVED PROPERTY: pIC50

## Input Request the reported pIC50 associated with c1cn(-c2cc(NC3=NC[C@@]4(CN5CCC4CC5)O3)ncn2)cn1
## Output < 3.82

---

SYSTEM TESTED: HEK293/Human α7 nAChR (Homo sapiens, UniProt P36544)
Sequence (P36544 23-502): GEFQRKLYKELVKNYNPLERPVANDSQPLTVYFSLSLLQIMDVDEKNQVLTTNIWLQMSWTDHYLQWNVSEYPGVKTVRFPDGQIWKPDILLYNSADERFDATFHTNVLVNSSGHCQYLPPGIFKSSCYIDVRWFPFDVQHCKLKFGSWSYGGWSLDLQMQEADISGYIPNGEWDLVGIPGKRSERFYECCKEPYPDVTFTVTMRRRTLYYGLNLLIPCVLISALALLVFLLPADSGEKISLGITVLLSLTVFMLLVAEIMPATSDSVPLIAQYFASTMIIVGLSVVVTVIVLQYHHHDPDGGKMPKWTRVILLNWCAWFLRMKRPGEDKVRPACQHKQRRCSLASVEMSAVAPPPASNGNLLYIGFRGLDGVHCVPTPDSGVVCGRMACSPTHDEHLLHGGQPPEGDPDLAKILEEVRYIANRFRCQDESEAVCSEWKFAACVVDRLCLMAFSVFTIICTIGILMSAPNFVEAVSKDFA
MEASUREMENT PROTOCOL: [3H]-A-585539 filtration binding
Set-up: expressed in transfected cells
CONDITION PARAMETERS: HEK293/Human α7 nAChR Mean ± SD Ki, displacement of [3H]-A-585539
OBSERVED PROPERTY: pKi
Quick note: pKi means taking -log10 of the concentration in moles per liter.

## Input Value wanted: pKi (HEK293/Human α7 nAChR (Homo sapiens, UniProt P36544)) of entry Clc1ccc(C2CC3CCC2N3)cn1 (racemic) [Epibatidine, (±)epibatidine]
## Output 7.98

---

SYSTEM TESTED: HEK293/Human 5-HT3A (Homo sapiens)
Construct: expressed in transfected cells; host or cells: HEK293 (made by Bristol-Myers Squibb)
Sequence (P46098 24-478): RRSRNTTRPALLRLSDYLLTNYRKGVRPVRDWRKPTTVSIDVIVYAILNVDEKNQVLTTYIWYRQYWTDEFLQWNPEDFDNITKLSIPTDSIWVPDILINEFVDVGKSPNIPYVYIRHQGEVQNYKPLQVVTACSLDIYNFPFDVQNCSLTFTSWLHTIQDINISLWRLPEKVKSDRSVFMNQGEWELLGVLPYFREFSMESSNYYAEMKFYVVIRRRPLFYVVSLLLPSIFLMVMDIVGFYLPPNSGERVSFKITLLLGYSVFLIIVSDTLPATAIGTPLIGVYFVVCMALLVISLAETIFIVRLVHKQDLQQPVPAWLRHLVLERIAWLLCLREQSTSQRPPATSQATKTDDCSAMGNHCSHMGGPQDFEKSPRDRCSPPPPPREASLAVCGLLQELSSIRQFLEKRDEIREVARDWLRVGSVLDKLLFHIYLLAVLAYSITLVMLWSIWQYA
MEASUREMENT PROTOCOL: Ca2+ flux (FLIPR) 5-HT3A antagonist assay
Assay type: cell-based
CONDITION PARAMETERS: HEK293/Human 5-HT3A Mean ± SD IC50, Ca2+ flux (FLIPR); antagonism of 2 μM 5-HT
Experimental: Functional activity was examined using Ca^2+-sensitive, dye-based, microfluorometric assays read on the FLIPR Tetra plate reader platform (Molecular Devices, CA, USA). Cells were plated in 384-well black, clear-bottomed Greiner poly-D-lysine coated plates at a density of ~25 K cells/well and incubated at 29°C for 48 h. […] Compounds diluted in assay buffer were added to the assay plate by the FLIPR and read for approximately 2 min. […]
compounds and their reported pIC50
Quick note: pIC50 means taking -log10 of the concentration in moles per liter.

Example entries and their recorded answers appear below.
• CN1CC2CN(c3ccc(-c4ccccc4)nn3)CC2C1.Cl.Cl (stereo not shown) = 6.99
• c1cn(-c2cc(NC3=NC[C@@]4(CN5CCC4CC5)O3)ncn2)cn1 = 5.09
• Cl.O=C(N[C@H]1CN2CCC1CC2)c1ccc(Cl)cc1 = 4.60

Now, please, on to the next compound.
## Input Request the reported pIC50 associated with O=C(c1ccc(-c2cccc(C(F)(F)F)c2)o1)N1CCN2CCC1CC2
## Output 5.32

---

MEASUREMENT PROTOCOL: Plasma and brain concentrations after dosing
Format: in vivo, rat
CONDITION PARAMETERS: rat, brain, sc, 1 mg/kg, Rat N40 Gating; 1 mg/kg sc; 30 min; read-out: Brain Mean ± SD
OBSERVED PROPERTY: concentration at 30 min

## Input Request the reported concentration at 30 min associated with c1cn(-c2cc(NC3=NC[C@@]4(CN5CCC4CC5)O3)ncn2)cn1
## Output 97 nM

---

MEASUREMENT PROTOCOL: Plasma and brain concentrations after dosing
Format: in vivo, rat
CONDITION PARAMETERS: rat, plasma, sc, 3 mg/kg, Rat MMN; 3 mg/kg sc; 30 min; read-out: Plasma Mean ± SD
OBSERVED PROPERTY: concentration at 30 min (nM)
Please give a number only; it is taken to be in nM.

## Input Request the reported concentration at 30 min associated with c1cn(-c2cc(NC3=NC[C@@]4(CN5CCC4CC5)O3)ncn2)cn1
## Output 1970

---

SYSTEM TESTED: Dopamine D1 (Homo sapiens)
Sequence (P21728 whole entry): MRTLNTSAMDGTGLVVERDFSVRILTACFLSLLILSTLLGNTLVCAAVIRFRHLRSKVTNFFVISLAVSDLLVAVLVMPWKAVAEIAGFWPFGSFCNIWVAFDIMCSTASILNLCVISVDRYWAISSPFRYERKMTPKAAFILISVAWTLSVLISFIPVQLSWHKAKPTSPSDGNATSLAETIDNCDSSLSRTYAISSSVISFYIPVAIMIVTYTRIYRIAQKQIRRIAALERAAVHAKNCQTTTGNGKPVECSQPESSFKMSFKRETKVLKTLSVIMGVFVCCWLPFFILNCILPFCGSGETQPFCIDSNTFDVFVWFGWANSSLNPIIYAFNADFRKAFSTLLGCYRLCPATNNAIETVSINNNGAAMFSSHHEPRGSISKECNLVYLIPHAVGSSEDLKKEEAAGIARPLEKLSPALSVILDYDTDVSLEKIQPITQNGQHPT
MEASUREMENT PROTOCOL: Selectivity panel, binding
OBSERVED PROPERTY: IC50

## Input Request the reported IC50 associated with c1cn(-c2cc(NC3=NC[C@@]4(CN5CCC4CC5)O3)ncn2)cn1 [BMS-933043]
## Output > 30 µM

---

SYSTEM TESTED: Norepinephrine transporter (Homo sapiens)
Sequence (P23975 whole entry): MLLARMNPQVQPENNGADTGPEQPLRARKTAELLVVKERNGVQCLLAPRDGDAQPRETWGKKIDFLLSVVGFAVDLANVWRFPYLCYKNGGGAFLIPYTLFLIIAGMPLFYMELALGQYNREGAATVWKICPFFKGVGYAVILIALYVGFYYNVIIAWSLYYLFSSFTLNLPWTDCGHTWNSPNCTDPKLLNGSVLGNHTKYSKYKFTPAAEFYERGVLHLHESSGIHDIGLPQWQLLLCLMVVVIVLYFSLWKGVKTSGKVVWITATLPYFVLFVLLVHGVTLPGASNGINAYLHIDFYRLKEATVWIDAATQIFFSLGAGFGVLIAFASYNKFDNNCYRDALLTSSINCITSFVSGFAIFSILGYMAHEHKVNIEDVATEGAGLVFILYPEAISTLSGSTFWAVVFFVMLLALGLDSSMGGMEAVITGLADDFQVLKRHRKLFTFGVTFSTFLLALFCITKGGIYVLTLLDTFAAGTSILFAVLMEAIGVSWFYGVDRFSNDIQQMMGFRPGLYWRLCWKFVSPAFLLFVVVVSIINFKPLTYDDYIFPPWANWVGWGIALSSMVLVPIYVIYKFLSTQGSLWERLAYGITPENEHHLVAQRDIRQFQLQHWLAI
OBSERVED PROPERTY: IC50

## Input Request the reported IC50 associated with c1cn(-c2cc(NC3=NC[C@@]4(CN5CCC4CC5)O3)ncn2)cn1 [BMS-933043]
## Output > 30 µM

---

MEASUREMENT PROTOCOL: Plasma and brain concentrations after dosing
Assay type: in vivo, mouse
CONDITION PARAMETERS: mouse, plasma, sc, 0.3 mg/kg, Mouse MK-801 Y Maze; 0.30 mg/kg sc; 60 min; read-out: Plasma Mean ± SD
OBSERVED PROPERTY: concentration at 60 min (nM)
Please give a number only; it is taken to be in nM.

## Input Request the reported concentration at 60 min associated with c1cn(-c2cc(NC3=NC[C@@]4(CN5CCC4CC5)O3)ncn2)cn1
## Output 94
